System: OVCAR-3
Test: cells
Settings: Homo sapiens, OVCAR-3
Measured parameter: pIC50
Reminder that pIC50 means the negative base-10 logarithm of the concentration expressed in mol/L.

Req: Given "Cc1[nH]c(=S)sc1C(=O)/C=C/c1cccc(Cl)c1" , state its recorded pIC50.
Resp: 5.38

====

Record: GI50 reported on UACC-62.
Provide only the numeric value, understood in µM.

Field: example entries. Status: answers known.
{"Smiles structure": "Cc1[nH]c(=S)sc1C(=O)/C=C/c1ccc(F)cc1", "GI50 / µM": 5.3}
{"Smiles structure": "Cc1[nH]c(=S)sc1C(=O)/C=C/c1ccc(Cl)cc1", "GI50 / µM": 9.77}

We now examine a further compound.
Req: Would you mind telling me what GI50 value was observed for "Cc1[nH]c(=S)sc1C(=O)/C=C/c1ccc(Br)cc1" ?
Resp: 5.17

====

Test system: HL-60(TB)
Assay: NCI-60 anticancer screen (SRB; single dose and five doses)
Details: Homo sapiens, HL-60
Measured parameter: pIC50
Entry type: numeric. Quantity: pIC50, the -log10 of concentration in molar units.

# count of solved cases: 2
{"Compound": "COc1cc(/C=C/C(=O)c2sc(=S)[nH]c2C)cc(OC)c1OC [2p]", "Target": "HL-60(TB)", "Reported measurement": 5.41}
{"Compound": "Cc1[nH]c(=S)sc1C(=O)/C=C/c1cccc([N+](=O)[O-])c1 [2h]", "Target": "HL-60(TB)", "Reported measurement": 5.48}

Req: GET /values?readout=pIC50&item= Cc1[nH]c(=S)sc1C(=O)/C=C/c1cccc(Cl)c1 [2e]
Resp: 5.37

Req: Queued: Cc1[nH]c(=S)sc1C(=O)/C=C/c1ccc(Cl)cc1 [2f]
Resp: 5.23

====

Recorded measurements of TGI, one per entry
Test system: SNB-75
Experiment: NCI-60 anticancer screen (SRB; single dose and five doses)
Settings: five-dose; CNS Cancer SNB-75
Number in µM, nothing else.

// known answers, use as guide
{"Compound": "COc1ccc(/C=C\\c2cc(OC)c(OC)c(OC)c2)cc1O [CA-4, Combretastatin-A4, reference compound]", "TGI / µM": 24.72}
{"Compound": "Cc1[nH]c(=S)sc1C(=O)/C=C/c1cccc([N+](=O)[O-])c1", "TGI / µM": 7.41}
{"Compound": "Cc1[nH]c(=S)sc1C(=O)/C=C/c1cccc(Cl)c1", "TGI / µM": 3.63}
{"Compound": "Cc1[nH]c(=S)sc1C(=O)/C=C/c1ccc(Cl)cc1", "TGI / µM": 6.76}

Continue with the next compound.
Req: Param item = "COc1cc(/C=C/C(=O)c2sc(=S)[nH]c2C)cc(OC)c1OC" ; retrieve measured TGI.
Resp: 6.17

====

Tested on: NCI-H522
Experiment: NCI-60 anticancer screen (SRB; single dose and five doses)
Conditions: Homo sapiens, NCI-H522, read-out: TGI
Measured parameter: IC (TGI) (µM)
Enter your answer as a number in µM; do not include the unit.

{"Smiles structure": "COc1cc(/C=C/C(=O)c2sc(=S)[nH]c2C)cc(OC)c1OC", "Reported measurement": 12.3}

Req: Requested read-out: IC (TGI). Entry: "Cc1[nH]c(=S)sc1C(=O)/C=C/c1ccc(F)cc1"
Resp: 21.2
